# System Under Test: SHP2 (Homo sapiens, UniProt Q06124)
# Sequence (Q06124 whole entry): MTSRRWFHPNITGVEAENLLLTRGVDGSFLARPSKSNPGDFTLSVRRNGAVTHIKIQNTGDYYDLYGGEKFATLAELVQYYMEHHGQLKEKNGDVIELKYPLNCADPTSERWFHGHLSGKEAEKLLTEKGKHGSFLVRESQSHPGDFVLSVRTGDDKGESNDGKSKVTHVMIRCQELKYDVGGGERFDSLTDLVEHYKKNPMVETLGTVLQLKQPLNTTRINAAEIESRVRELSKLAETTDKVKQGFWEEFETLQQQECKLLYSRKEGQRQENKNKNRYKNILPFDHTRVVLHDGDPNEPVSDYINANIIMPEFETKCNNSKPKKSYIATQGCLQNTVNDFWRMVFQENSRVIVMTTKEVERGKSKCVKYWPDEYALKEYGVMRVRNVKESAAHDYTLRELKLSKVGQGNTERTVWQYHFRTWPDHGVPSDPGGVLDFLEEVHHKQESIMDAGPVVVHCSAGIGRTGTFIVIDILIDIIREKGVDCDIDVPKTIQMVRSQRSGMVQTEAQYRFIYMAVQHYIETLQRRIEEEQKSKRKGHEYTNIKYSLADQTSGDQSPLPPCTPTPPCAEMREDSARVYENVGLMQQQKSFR
# Protocol Description: SHP2 allosteric inhibition assay (DiFMUP prompt fluorescence)
# Conditions: 0.25 nM SHP2 activated with 0.5 μM peptide IRS1_pY1172(dPEG8)pY1222; substrate DiFMUP 100 μM
Attribute Measured: IC50

Consider the reported IC50 for these compounds:
Compound: Nc1nccc(Sc2cnc(N3[C@@H]4CC[C@H]3C[C@]3(C4)Oc4ccccc4[C@H]3N)cn2)c1Cl
Endpoint Result: < 50 nM
--
Compound: N#Cc1cccc2c1CC1(CCN(c3cnc4c(N5CCCc6ncccc65)n[nH]c4n3)CC1)[C@H]2N (single isomer, unassigned)
Endpoint Result: 1000 to 10000 nM
--
Compound: Cc1nc(N2CCC3(CC2)Cc2ccccc2[C@@H]3N)c(CO)nc1-c1cccc(Cl)c1Cl (single isomer, unassigned)
Endpoint Result: 50 to 1000 nM

Query the reported IC50 for SHP2 (Homo sapiens, UniProt Q06124); item: C[C@H](O)c1nc(Sc2ccnc(Cl)c2Cl)cnc1N1CCC2(CC1)Cc1ccccc1[C@H]2N (single isomer, unassigned)
> 10000 nM
